experimental details: protein stability index of a GFP-peptide fusion (GPS, HEK-293T) (PSI 1-6); higher = more stable;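 also: 24-mer peptide tiles fused after GFP, lentivirally expressed, FACS-sorted into six equal bins by GFP/DsRed ratio, decoded by Illumina sequencing, PSI is the read-weighted mean bin number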
measurement context: treatment: DMSO; c terminus: a fixed tail appended
Threshold check on protein stability index: at or above 4 gives class 1, strictly below gives class 0.

> print(dat)
                        sequence.chain  label.value
1  VEKETQEKMTILQTYFRQNRDEVL [ATP6V1G1]      class 0
2      STMTSSVQIYNLSQNIQEDDLQQL [ATL3]      class 1
3      QLGLGRGASTFKEEPQTVPEARSR [JUNB]      class 1
4    VGIYATNSAEACQYVITHAKVNIL [ACSBG2]      class 0
5    LARLEERSSEFYRVTTEQYQKAAE [CHCHD3]      class 1

Query: Confirm if protein stability index reported for the sequence VKDEAHQAQKDPKKDRPLARRKSE [PPP2R5C] is 4 or above.
Reply: class 1

Query: Say whether ISHQGDYAVLAAEPELQVGIDIMK [AASDHPPT] shows protein stability index of 4 or more.
Reply: class 0

Query: // inclusive: protein stability index at least 4? input: WICQRSTVASMMHRQETVDCLKKF [CAMK2D]
Reply: class 0

Query: Is protein stability index at least 4? Consider PPLREIILGPSSAYTQTQFHNLRN [NFE2L1]
Reply: class 0

Query: I'd appreciate it if you could say whether AEGPNRLLYKDGFSTILHLLLGSP [LPCAT4] has protein stability index at least equal to 4.
Reply: class 0
